Entry source: the RNAGym collection of RNA variant scans (doi:10.7554/elife.80360)

B1: HDV Ribozyme (parent)
chain: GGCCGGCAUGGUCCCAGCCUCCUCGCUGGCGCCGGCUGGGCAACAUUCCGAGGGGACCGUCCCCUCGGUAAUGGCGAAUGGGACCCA

Variants of: B1
Assay: self-cleavage, relative activity (ratio to wild type); higher = more cleavage; co-transcriptional
Note to self: class labels come from recorded self-cleavage, ranges listed here: LOW (below 0.1), MID (0.1 to below 0.3), HIGH (0.3 or more)

Mutant Designation: G38U A51C
Category Label: MID
//
Mutant Designation: G1A G53U
Category Label: LOW
//
Mutant Designation: C30A G73U
Category Label: MID

Request: Which class holds G2C G25C ?
Result: LOW

Request: Which class holds U20C G74U ?
Result: MID

Request: Which class holds U37A C61G ?
Result: MID

Request: Which class holds G31A G40U ?
Result: MID

Request: Which class holds A51U G80C ?
Result: MID

Request: Which class holds C49U U65G ?
Result: HIGH

Request: Which class holds G2U G25U ?
Result: LOW

Request: Which class holds G25A G76C ?
Result: MID

Request: Which class holds G11U G67A ?
Result: LOW

Request: Which class holds A51G C57G ?
Result: HIGH

Request: Which class holds C32U U60G ?
Result: HIGH

Request: Which class holds C15U C36A ?
Result: MID

Request: Which class holds G17A C21G ?
Result: LOW

Request: Which class holds G25U G34U ?
Result: LOW

Request: Which class holds G52U G59A ?
Result: HIGH

Request: Which class holds G2C A51U ?
Result: LOW
